Where these numbers come from: a melting point compilation (Tetko et al.; mined from patent text by program, amines drawn as free bases though some values may be those of a salt)

readout.type: melting point

Field: example entries. Status: answers known.
molecule=CCCn1c(CCOC)nc2c(N)nc3cc(OCCCNC(=O)OC(C)(C)C)ccc3c21 endpoint_value="134 to 135 °C"
molecule=Nc1ccn(C2CCCCC2)c(=O)n1 endpoint_value="213 to 231 °C"
molecule=CCCCOc1cc(C(=O)O)cc(N)c1C(=O)c1ccc(Cl)cc1 endpoint_value="286 to 288 °C"

Given the molecule c1cn(Cc2ccc3c(c2)-c2[nH]nc(-c4ccsc4)c2C3)nn1 , what is its reported melting point? 249 to 252 °C

Given the molecule CNC(=O)c1c(NC(=O)c2cc(C(F)(F)F)nn2-c2ncccc2Cl)ccc2cn[nH]c12 , what is its reported melting point? 190 to 192 °C

Given the molecule O=C1NC(O)C2=C1c1ccc(Cl)cc1C(c1ccccc1Cl)=NC2 (stereo not given) , what is its reported melting point? 221 to 222 °C

Given the molecule Cc1c(Cc2ccncc2)nnc(Nc2cccc(Cl)c2)c1C , what is its reported melting point? 164 to 167 °C

Given the molecule CC(C)c1ccc(S(=O)(=O)n2c(CCC(=O)O)cc3cc(Cl)ccc32)cc1 , what is its reported melting point? 150 to 154 °C

Given the molecule C=C(C)COc1ccc(C(=O)C=Cc2ccc(Br)cc2)c(O)c1 , what is its reported melting point? 121 to 122 °C

Given the molecule Cc1ccc(C2(CCC(=O)O)NC(=O)NC2=O)cc1Cl (stereo not given) , what is its reported melting point? 196 to 199 °C
